The entries that follow carry Ki values tested on Carbonic anhydrase 1 (Homo sapiens), drawn from several published reports.

Any idea what Ki came out for `CN1CCN(NC(=S)NC(=O)c2cc3ccccc3oc2=O)CC1` on Carbonic anhydrase 1 (Homo sapiens)? > 10 µM

Any idea what Ki came out for `NS(=O)(=O)c1ccc(NC(=O)NC(=O)c2ccccc2)cc1` on Carbonic anhydrase 1 (Homo sapiens)? 0.949 µM

Any idea what Ki came out for `CN(CCCCCCOC(=O)c1c2ccccc2cc2ccccc12)CCCOC(=O)COc1ccc2ccc(=O)oc2c1` on Carbonic anhydrase 1 (Homo sapiens)? > 10 µM

Any idea what Ki came out for `COc1ccc(-c2nc(Nc3cccc(C(=O)O)c3)c3ccccc3n2)cc1` on Carbonic anhydrase 1 (Homo sapiens)? > 100 µM
